# assay.notes: qHTS assay for re-activators of p53 using a Luc reporter: Hit Validation with no p53 Expressed
# conditions.used: p53-null cells, luciferase reporter counter-screen; series mostly up to 46.1 µM
Results filed as inconclusive are left out. Calls of active or inactive are those of the source. Calls follow the shape of the dose curve; as a rule, active = well fitted activation curve with a large enough effect; inconclusive = small, poorly fitted or top-dose-only effect; inactive = no such curve, though single readings can be large or run the other way.
Return exactly one item of true for active, false for inactive

Use the examples below as a reference point.
compound=O=C(NC(=S)NCCc1ccccc1)C1CCCCC1 assigned_label=false
compound=COC(=O)c1nn(-c2ccc(-c3ccccc3)cc2)cc1O assigned_label=false
compound=CC(C)(C)CC(=O)O/N=C(\N)c1ccccn1 assigned_label=true
compound="COc1ccc(C(=O)C(CN2CCCC2)c2ccccc2)cc1 (centres undefined)" assigned_label=false

Exercise: What is the recorded call for this compound in the test? O=C(Nc1nnc(-c2cccs2)o1)c1cccc(C(F)(F)F)c1
Key: false

Exercise: What is the recorded call for this compound in the test? Nc1c(C(=O)c2ccc(Br)cc2)oc2ccccc12
Key: false

Exercise: What is the recorded call for this compound in the test? O=C(N/N=C/c1ccccc1O)C1CC(=O)N(c2ccc(Cl)cc2)C1 (centres undefined)
Key: false

Exercise: What is the recorded call for this compound in the test? COc1cc(C(=O)NCCc2cn3ccc(C)cc3n2)cc(OC)c1OC
Key: false

Exercise: What is the recorded call for this compound in the test? NC(=O)c1cc2ccc(O)cc2oc1=Nc1ccccc1
Key: false

---

# assay.notes: qHTS assay for re-activators of p53 using a Luc reporter: Hit Validation with no p53 Expressed
# conditions.used: p53-null cells, luciferase reporter counter-screen; series mostly up to 46.1 µM
Results filed as inconclusive are left out. Activity calls are given as the source filed them. Calls follow the shape of the dose curve; as a rule, active = well fitted activation curve with a large enough effect; inconclusive = small, poorly fitted or top-dose-only effect; inactive = no such curve, though single readings can be large or run the other way.
quantity: outcome

Please review the entries below; each comes with its answer.
molecule=COc1cc(NC(=O)CSCc2ccc(Cl)cc2)c(C(=O)O)cc1OC reported_measurement=inactive
molecule="CCCN(C(=O)c1cccc(S(=O)(=O)N2CCCc3ccccc32)c1)C1CCS(=O)(=O)C1 (centres undefined)" reported_measurement=inactive
molecule=O=[N+]([O-])c1cc(C(F)(F)F)ccc1NCCc1c[nH]c2ccccc12 reported_measurement=inactive
molecule=C/C(=N\NC(=O)c1ccc(F)cc1)c1ccccn1 reported_measurement=inactive
molecule=Cc1ccsc1/C=N/Nc1nc2ccccc2[nH]1 reported_measurement=inactive

// batch mode: one outcome value per listed entry
1. Cc1ccc(NC(=S)NC(=O)c2cccs2)cc1F
2. CC1CC1C(=O)Nc1nc2ccc(S(C)(=O)=O)cc2s1 (centres undefined)

Key:
1: inactive; 2: inactive

// batch mode: one outcome value per listed entry
1. CS(=O)(=O)c1ccc2nc(NC(=O)c3ccco3)sc2c1
2. O=C(COC(=O)c1cn(-c2ccccc2)nc1-c1ccc(F)cc1)Nc1ncc(Cl)cc1Cl

Key:
["inactive", "inactive"]

---

# assay.notes: qHTS assay for re-activators of p53 using a Luc reporter: Hit Validation with no p53 Expressed
# conditions.used: p53-null cells, luciferase reporter counter-screen; series mostly up to 46.1 µM
# Experimental: The p53 tumor suppressor plays a key role in suppression of tumorigenesis and in human carcinogenesis. It is frequently found inactivated in human cancers, mainly by point mutation. […] 5ul of 1000 cells per well are dispensed in all wells except column 4, into white solid-bottom TC-treated Kalypsys plates. […] Plates are incubated for 10 min at ambient room temperature and are then read on the ViewLux (Perkin Elmer) using a clear filter for a luminescent read-out.
Inconclusive results are not listed. Calls of active or inactive are those of the source. Calls follow the shape of the dose curve; as a rule, active = well fitted activation curve with a large enough effect; inconclusive = small, poorly fitted or top-dose-only effect; inactive = no such curve, though single readings can be large or run the other way.
Return exactly one item of active, inactive

Use the examples below as a reference point.
compound=CCOc1ccc(S(=O)(=O)c2c(C(=O)c3ccc(C)cc3)cnc3cc4c(cc23)OCCO4)cc1 assigned_label=inactive
compound=O=C(Nc1ccc(N2CCCCCC2)cc1)c1ccc[nH]1 assigned_label=active
compound="C#CC(C)(CC)NC(=O)Cn1nnc(-c2ccc(S(C)(=O)=O)cc2)n1 (stereo unspecified)" assigned_label=inactive
compound=COc1ccccc1-c1nc(-c2ccc(Br)o2)no1 assigned_label=active
compound="O=C(Nc1nc2c(s1)CCCC2)C1COc2ccccc2O1 (stereo unspecified)" assigned_label=inactive

Exercise: What is the recorded call for this compound in the test? Cc1ccc(N2C(=O)c3ccccc3C2C(=O)c2cc(C)ccc2O)cc1 (stereo unspecified)
Key: inactive

Exercise: What is the recorded call for this compound in the test? CCCN1CCC(=NNC(=O)CSc2cc(C)c(Br)cc2C)CC1
Key: inactive

Exercise: What is the recorded call for this compound in the test? Cc1ccc(NC(=O)/C(Cl)=C/c2ccccc2)cc1C
Key: inactive

Exercise: What is the recorded call for this compound in the test? COc1cc(/C=C/C(=O)N2C(=O)c3cccc(N)c3C2=O)cc(OC)c1OC
Key: inactive

Exercise: What is the recorded call for this compound in the test? Cc1cc([N+](=O)[O-])ccc1NC(=O)/C=C/c1cccs1
Key: inactive

Exercise: What is the recorded call for this compound in the test? CCn1c(C)nc2cc(C(=O)NNC(=O)c3ccc(C)cc3)ccc21
Key: inactive
